Biological target: S. aureus GyrB ATPase (Staphylococcus aureus, UniProt P0A0K8)
Sequence (P0A0K8 whole entry): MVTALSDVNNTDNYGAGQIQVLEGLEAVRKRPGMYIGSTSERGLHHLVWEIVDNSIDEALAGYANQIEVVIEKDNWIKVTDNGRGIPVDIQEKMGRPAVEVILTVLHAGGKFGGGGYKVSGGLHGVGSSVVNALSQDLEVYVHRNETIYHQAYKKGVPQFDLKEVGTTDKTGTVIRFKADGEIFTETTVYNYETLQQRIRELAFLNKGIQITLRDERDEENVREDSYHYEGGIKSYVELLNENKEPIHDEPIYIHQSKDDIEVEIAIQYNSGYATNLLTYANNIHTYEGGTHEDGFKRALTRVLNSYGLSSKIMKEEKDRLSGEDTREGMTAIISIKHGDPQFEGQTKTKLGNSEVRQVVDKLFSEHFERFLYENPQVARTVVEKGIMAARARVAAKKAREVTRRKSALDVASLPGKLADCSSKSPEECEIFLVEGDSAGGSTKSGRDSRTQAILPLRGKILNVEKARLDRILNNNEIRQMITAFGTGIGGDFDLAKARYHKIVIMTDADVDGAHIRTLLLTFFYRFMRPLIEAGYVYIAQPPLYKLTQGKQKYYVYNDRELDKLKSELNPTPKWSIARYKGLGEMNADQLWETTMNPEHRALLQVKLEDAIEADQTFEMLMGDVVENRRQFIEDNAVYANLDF
Sequence (P0AES4 whole entry, further chain): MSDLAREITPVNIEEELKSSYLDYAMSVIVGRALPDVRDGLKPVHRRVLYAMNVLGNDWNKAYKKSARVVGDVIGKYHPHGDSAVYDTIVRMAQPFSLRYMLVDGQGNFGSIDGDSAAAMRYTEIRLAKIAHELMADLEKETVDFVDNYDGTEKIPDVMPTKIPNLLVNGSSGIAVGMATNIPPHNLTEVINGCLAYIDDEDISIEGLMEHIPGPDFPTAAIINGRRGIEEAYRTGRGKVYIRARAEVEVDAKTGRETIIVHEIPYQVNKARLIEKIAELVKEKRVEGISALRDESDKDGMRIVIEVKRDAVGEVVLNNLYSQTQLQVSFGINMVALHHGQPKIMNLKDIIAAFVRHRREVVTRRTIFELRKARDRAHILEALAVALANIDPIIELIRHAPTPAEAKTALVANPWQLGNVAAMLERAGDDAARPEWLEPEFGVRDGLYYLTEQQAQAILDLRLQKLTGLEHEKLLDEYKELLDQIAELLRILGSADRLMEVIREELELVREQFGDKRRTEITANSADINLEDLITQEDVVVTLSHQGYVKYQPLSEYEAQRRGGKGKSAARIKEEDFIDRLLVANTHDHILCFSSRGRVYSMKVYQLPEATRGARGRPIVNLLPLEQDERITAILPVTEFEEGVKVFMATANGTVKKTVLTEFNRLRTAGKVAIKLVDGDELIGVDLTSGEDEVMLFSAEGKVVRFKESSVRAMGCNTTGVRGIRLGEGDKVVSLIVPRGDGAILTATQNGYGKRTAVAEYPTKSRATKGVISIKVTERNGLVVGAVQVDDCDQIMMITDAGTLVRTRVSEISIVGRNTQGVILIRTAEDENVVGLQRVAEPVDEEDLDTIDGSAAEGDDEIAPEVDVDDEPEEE
Experiment: biochemical
Conditions: compound at 1 μM; one value per test if tested more than once; read-out: % Inhibition of S. aureus GyrB ATPase
Structures can show the parent of a compound that is named as a salt.
Item-by-item account of inhibition at 1 µM
The answer is to be given in %; state only the numeric part.

Solved entries (count: 10):
CCCNC(=O)Nc1cc(-c2nc(C(F)(F)F)cs2)c(-c2ccc3c(c2)c(=O)c(C(=O)O)cn3CCOC)cn1 | 94
CCCNC(=O)Nc1cc(-c2nc(C(F)(F)F)cs2)c(-c2ccc3c(c2)c(=O)c(C(=O)O)cn3[C@H](CO)C(C)(C)C)cn1 | 95
CCNC(=O)Nc1cc(-c2nc(C(F)(F)F)cs2)c(-c2ccc3c(c2)c(=O)c(C(=O)O)cn3CCCO)cn1 | 98
CCNC(=O)Nc1cc(-c2nc(C(F)(F)F)cs2)c(-c2ccc3c(c2)c(=O)c(C(=O)NCCCO)cn3C2CC2)cn1 | 102
CCNC(=O)Nc1cc(-c2nc(C(F)(F)F)cs2)c(-c2ccc3c(c2)c(=O)c(C(=O)O)cn3[C@H]2CCCN(CC(C)(C)CN3CCOCC3)C2)cn1 | 103
CCCn1cc(C(=O)NCCO)c(=O)c2ccc(-c3cnc(NC(=O)NCC)cc3-c3nc(C(F)(F)F)cs3)cc21 | 98
CCNC(=O)Nc1cc(-c2nc(C(F)(F)F)cs2)c(-c2ccc3c(c2)c(=O)c(C(=O)O)cn3C(CC)CO)cn1 (stereo not shown) | 95
CCNC(=O)Nc1cc(-c2nc(C(F)(F)F)cs2)c(-c2ccc3c(=O)c(C(=O)NCCN4CCOCC4)cn(CC(C)C)c3c2)cn1 | 98
CCNC(=O)Nc1cc(-c2nc(C(F)(F)F)cs2)c(-c2ccc3c(c2)c(=O)c(C(=O)NCCO)cn3C(COC)COC)cn1 | 93
CCNC(=O)Nc1cc(-c2nc(C(F)(F)F)cs2)c(-c2ccc3c(=O)c(C(=O)O)cn(Cc4ccccc4)c3c2)cn1 | 97

Tell me measured inhibition at 1 µM for `CCNC(=O)Nc1cc(-c2nc(-c3ccccc3)cs2)c(-c2ccc3c(=O)c(C(=O)OCC)cn(CC)c3c2)cn1` please. 98

Respond only with inhibition at 1 µM recorded for CCNC(=O)Nc1cc(-c2nc(C(F)(F)F)cs2)c(-c2ccc3c(c2)c(=O)c(C(=O)O)cn3[C@H]2CCCN(CCN(CC)CC)C2)cn1 [Example 287, trifluoroacetate] 100

For `CCNC(=O)Nc1cc(-c2nc(C(F)(F)F)cs2)c(-c2ccc3c(c2)c(=O)c(C(=O)O)cn3[C@@H]2CCCN(CC(C)(C)CN3CCOCC3)C2)cn1` , write its inhibition at 1 µM. 100

----------
Molecular target: UniProtKB P0A0K8
Experiment: biochemical
Conditions: compound at 1 μM; one value per test if tested more than once; read-out: % Inhibition of S. aureus GyrB ATPase
Quantity Measured: inhibition at 1 µM (%)
// return numeric value only (unit: %, not printed)

Before answering, review these 5 worked examples.
CCNC(=O)Nc1cc(-c2nc(C(F)(F)F)cs2)c(-c2ccc3c(c2)c(=O)c(C(=O)O)cn3[C@H](CO)C2CCCCC2)cn1 [Example 78] | 102
CCNC(=O)Nc1cc(-c2nc(C(F)(F)F)cs2)c(-c2ccc3c(c2)c(=O)c(C(=O)O)cn3CC2CCN(CC3CCCO3)C2)cn1 (stereo not drawn) [Example 307] | 105
CCNC(=O)Nc1cc(-c2nc(C(F)(F)F)cs2)c(-c2ccc3c(c2)c(=O)c(C(=O)O)cn3[C@H]2CCN(C)C2)cn1 [Example 312] | 105
CCNC(=O)Nc1cc(-c2nc(C(F)(F)F)cs2)c(-c2ccc3c(c2)c(=O)c(C(=O)O)cn3[C@@H](CC)CO)cn1 [Example 86] | 98
CCNC(=O)Nc1cc(-c2nc(C(F)(F)F)cs2)c(-c2ccc3c(c2)c(=O)c(C(=O)O)cn3C(CO)CO)cn1 [Example 75] | 102

Next, consider the following compound.
Could you please provide reported inhibition at 1 µM for CCCNC(=O)Nc1cc(-c2nc(C(F)(F)F)cs2)c(-c2ccc3c(c2)c(=O)c(C(=O)N2CCN(C)CC2)cn3CCN(C)C)cn1 [Example 156] ? Thanks! 105

----------
Biological target: S. aureus GyrB ATPase (Staphylococcus aureus, UniProt P0A0K8)
Assay: biochemical
Conditions: compound at 1 μM; one value per test if tested more than once; read-out: % Inhibition of S. aureus GyrB ATPase
Counter-ions that a name gives are not always drawn.
Quantity Measured: inhibition at 1 µM (%)
Numbers only here, please. The scale is %.

CCCNC(=O)Nc1cc(-c2nc(C(F)(F)F)cs2)c(-c2ccc3c(c2)c(=O)c(C(=O)O)cn3CCN2CCOCC2)cn1 | 93
CCNC(=O)Nc1cc(-c2nc(C(F)(F)F)cs2)c(-c2ccc3c(c2)c(=O)c(C(=O)N2CCN(C(C)=O)CC2)cn3C(COC)COC)cn1 | 94
CCNC(=O)Nc1cc(-c2nc(C(F)(F)F)cs2)c(-c2ccc3c(c2)c(=O)c(C(=O)O)cn3CC2CCCCN2C)cn1 (stereo not drawn) [Example 127, formic acid salt] | 117
CCCNC(=O)Nc1cc(-c2nc(C(F)(F)F)cs2)c(-c2ccc3c(c2)c(=O)c(C(=O)O)cn3[C@H](CO)CC(C)C)cn1 | 96
CCNC(=O)Nc1cc(-c2nc(C(F)(F)F)cs2)c(-c2ccc3c(=O)c(C(=O)NCCN4CCN(C)CC4)cn(CCOC)c3c2)cn1 | 94

Kindly review the next compound as well.
Report inhibition at 1 µM for `CCNC(=O)Nc1cc(-c2nc(C(F)(F)F)cs2)c(-c2ccc3c(c2)c(=O)c(C(=O)O)cn3[C@H]2CCCC[C@@H]2N)cn1` 114

----------
Target: S. aureus GyrB ATPase (Staphylococcus aureus, UniProt P0A0K8)
Test: biochemical
Details: compound at 1 μM; one value per test if tested more than once; 1 µM
% Inhibition of S. aureus GyrB ATPase listing for selected compounds.
// return the numeric value with its unit appended

Here are 3 compounds together with their reported answers.
CCNC(=O)Nc1cc(-c2nc(C(F)(F)F)cs2)c(-c2ccc3c(c2)c(=O)c(C(=O)O)cn3[C@H](CO)CC(C)C)cn1 | 109%
CCNC(=O)Nc1cc(-c2nc(C(F)(F)F)cs2)c(-c2ccc3c(c2)c(=O)c(C(=O)O)cn3CCOC)cn1 | 104%
CCNC(=O)Nc1cc(-c2nc(C(F)(F)F)cs2)c(-c2ccc3c(=O)c(C(=O)NC)cn(CC)c3c2)cn1 | 109%

Return reported % Inhibition of S. aureus GyrB ATPase. Input compound: `CCCNC(=O)Nc1cc(-c2nc(C(F)(F)F)cs2)c(-c2ccc3c(c2)c(=O)c(C(=O)O)cn3CCN(C)C)cn1` 106%

For the compound CCNC(=O)Nc1cc(-c2nc(C(F)(F)F)cs2)c(-c2ccc3c(c2)c(=O)c(C(=O)O)cn3CC2COCCN2)cn1 (centres unmarked) , give its measured % Inhibition of S. aureus GyrB ATPase value. 109%

----------
Target: S. aureus GyrB ATPase (Staphylococcus aureus)
Test: biochemical
Settings: compound at 1 μM; one value per test if tested more than once; read-out: % Inhibition of S. aureus GyrB ATPase
Quick list: inhibition at 1 µM per entry.
Enter your answer as a number in %; do not include the unit.

Recorded inhibition at 1 µM, per entry:
CCNC(=O)Nc1cc(-c2nc(C(F)(F)F)cs2)c(-c2ccc3c(=O)c(C(=O)NCCCO)cn(Cc4ccccc4)c3c2)cn1 | 87
CCNC(=O)Nc1cc(-c2nc(C(F)(F)F)cs2)c(-c2ccc3c(c2)c(=O)c(C(=O)O)cn3[C@@H]2CCCN(CCS(C)(=O)=O)C2)cn1 | 106

Lab note: S. aureus GyrB ATPase (Staphylococcus aureus) assay, enter inhibition at 1 µM for `CCNC(=O)Nc1cc(-c2nc(C(F)(F)F)cs2)c(-c2ccc3c(c2)c(=O)c(C(=O)O)cn3[C@H]2CCCC[C@@H]2O)cn1` here 103

----------
Molecular target: S. aureus GyrB ATPase (Staphylococcus aureus)
Test: biochemical
Conditions: compound at 1 μM; one value per test if tested more than once; read-out: % Inhibition of S. aureus GyrB ATPase
Quantity Measured: inhibition at 1 µM (%)
Please respond with the number in % and leave the unit unwritten.

CCNC(=O)Nc1cc(-c2nc(C(F)(F)F)cs2)c(-c2ccc3c(c2)c(=O)c(C(=O)O)cn3[C@@H]2CCCN(CC)C2)cn1 | 105
CCNC(=O)Nc1cc(-c2nc(-c3ccccc3)cs2)c(-c2ccc3c(=O)c(C(=O)NC)cn(CC)c3c2)cn1 | 101
CCCn1cc(C(=O)NCCN2CCN(C)CC2)c(=O)c2ccc(-c3cnc(NC(=O)NCC)cc3-c3nc(C(F)(F)F)cs3)cc21 | 88
CCNC(=O)Nc1cc(-c2nc(C(F)(F)F)cs2)c(-c2ccc3c(c2)c(=O)c(C(=O)O)cn3CC(C)N(C)C)cn1 (stereo not drawn) | 103
CCNC(=O)Nc1cc(-c2nc(C(F)(F)F)cs2)c(-c2ccc3c(=O)c(C(=O)NCCN4CCOCC4)cn(CCC(C)C)c3c2)cn1 | 109

Okay, now this molecule:
Report the value of inhibition at 1 µM obtained on S. aureus GyrB ATPase (Staphylococcus aureus) for CCNC(=O)Nc1cc(-c2nc(C(F)(F)F)cs2)c(-c2ccc3c(c2)c(=O)c(C(=O)O)cn3CC2CCCN(C)C2)cn1 (stereo not drawn) . 103
